Listed below: Kd values for each entry.
- measurement-target: T1, GFP-9S library array, motif 4 ND N98E;D124K (synthetic construct, N98E;D124K)
- T1 chain: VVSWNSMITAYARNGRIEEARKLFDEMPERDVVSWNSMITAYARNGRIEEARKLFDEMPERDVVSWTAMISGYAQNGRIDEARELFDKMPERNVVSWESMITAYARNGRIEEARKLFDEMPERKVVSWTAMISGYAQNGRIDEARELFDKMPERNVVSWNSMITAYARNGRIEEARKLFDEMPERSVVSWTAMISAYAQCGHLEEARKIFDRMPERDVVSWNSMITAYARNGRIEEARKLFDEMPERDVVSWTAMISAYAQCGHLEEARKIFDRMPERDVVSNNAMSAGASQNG
- assay-explanation: high-throughput RNA pulldown from lysate on Ni-NTA beads; HRP: 50 mM Tris pH 8, 150 mM NaCl, 1 mM beta-mercaptoethanol, 50 ug/ml BSA, 3 ug/ml yeast RNA, 0.5% heparin; ITC and FP: Tris pH 8, 200 mM KCl, 5% glycerol; MST: 50 mM Tris pH 8, 200 mM NaCl, 1 mM DTT, BSA, heparin, 0.05% Tween 20
- assay-conditions: tags: N-terminal His-eGFP; label: 5' IRDye 800CW
reported-property: Kd

binder="AUUAAACGUGA (ssRNA) [IR-rpoA-A]" reported_property=Kd measurement="312 nM"
binder="AUUAUACGUGA (ssRNA) [IR-rpoA-U]" reported_property=Kd measurement="267 nM"
